Target: FSHR (Homo sapiens)
Assay: EC50 of cyclic AMP production in CHO FSHR cells + EC20 FSH (Assay A)
Conditions: cyclic AMP production in CHO FSHR cells + EC20 FSH (0.265 pM), HTRF
Description: Example 24. EC50 of cyclic AMP production in CHO FSHR cells+EC20 FSH (Assay A) 2500 Cho-FSHR-LUC-1-1-43 cells were plated per well in 5 al of phenol red free DMEM/F12+1% FBS. Cells were plated in 384 well, solid white low volume plates (Greiner 784075) by Multidrop. […] The plates were read on Envision using the cAMP HTRF—low volume 384 well protocol. The readout was the calculated fluorescence ratio (665 nm/620 nm). […]
pEC50: −log10 of the molar value.
pEC50 by entry:

Illustrative cases are given below, each with its answer.
1. COc1cc2c(cc1-c1cncc(C(N)=O)c1)-c1c(c(C(=O)N(C)C(C)(C)C(N)=O)nn1-c1cc(F)cc(F)c1)CO2 :: 7.00 to 8.00
2. CCN(C(=O)c1nn(-c2cc(Cl)cc(Cl)c2)c2c1COc1cc(OC)c(-c3ccn(C)n3)cc1-2)S(=O)(=O)CC :: > 8.00
3. COc1cc2c(cc1-c1ccn(C)n1)-c1c(c(C(=O)N3CC[S+]([O-])CC3(C)C)nn1-c1cc(Cl)cc(Cl)c1)CO2 (stereo not shown) :: 7.00 to 8.00
4. COc1cc2c(cc1C1C=NN=C1C)-c1c(c(C(=O)N(C)C(C)(C)C)nn1-c1cc(Cl)cc(Cl)c1)CO2 (stereo not shown) :: > 8.00
5. COc1cc2c(cc1-c1cncc(C#N)c1)-c1c(c(C(=O)N3CCOCC3(C)C)nn1-c1cc(F)cc(Cl)c1)CO2 :: > 8.00

Data request: Any idea what pEC50 was measured for COc1cc2c(cc1-c1cncc(C(N)=O)c1C)-c1c(c(C(=O)N(C)C(C)(C)C#N)nn1-c1cc(F)cc(F)c1)CO2 ?
Data returned: > 8.00

Data request: Any idea what pEC50 was measured for COc1cc2c(cc1C#CC(N)=O)-c1c(c(C(=O)N(C)C(C)(C)C)nn1-c1ccsc1)CO2 ?
Data returned: 7.00 to 8.00

====

Target: FSHR (Homo sapiens)
Sequence (P23945 18-695): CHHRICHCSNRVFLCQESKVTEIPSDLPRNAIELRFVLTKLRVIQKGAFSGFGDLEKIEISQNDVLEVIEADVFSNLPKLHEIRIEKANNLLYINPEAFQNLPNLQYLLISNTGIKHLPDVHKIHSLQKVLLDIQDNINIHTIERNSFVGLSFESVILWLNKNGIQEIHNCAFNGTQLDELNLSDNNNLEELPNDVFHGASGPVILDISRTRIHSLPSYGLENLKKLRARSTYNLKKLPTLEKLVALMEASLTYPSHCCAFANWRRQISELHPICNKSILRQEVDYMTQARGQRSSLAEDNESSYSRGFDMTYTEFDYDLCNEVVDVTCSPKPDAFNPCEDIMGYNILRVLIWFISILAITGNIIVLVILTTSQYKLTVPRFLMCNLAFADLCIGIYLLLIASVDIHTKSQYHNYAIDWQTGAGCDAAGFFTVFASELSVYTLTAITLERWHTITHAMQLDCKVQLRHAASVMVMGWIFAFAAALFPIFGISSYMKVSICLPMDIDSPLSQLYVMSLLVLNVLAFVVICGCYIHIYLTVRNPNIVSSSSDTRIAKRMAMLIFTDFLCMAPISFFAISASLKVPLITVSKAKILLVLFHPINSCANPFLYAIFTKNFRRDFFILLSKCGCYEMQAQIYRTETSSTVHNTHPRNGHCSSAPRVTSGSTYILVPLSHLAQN
Assay: EC50 of cyclic AMP production in CHO FSHR cells + EC20 FSH (Assay A)
Conditions: cyclic AMP production in CHO FSHR cells + EC20 FSH (0.265 pM), HTRF
EC50 by entry:

Data request: Could you share what EC50 was measured for COc1cc2c(cc1-c1cnn(CC(O)CO)c1)-c1c(c(C(=O)N(C)C(C)(C)C)nn1-c1cc(Cl)cc(Cl)c1)CO2 (single isomer, unassigned) [Compound 192] , tested on FSHR (Homo sapiens)?
Data returned: 101 to 500 nM

Data request: Could you share what EC50 was measured for COc1cc2c(cc1-c1cncc(C#N)c1)-c1c(c(C(=O)N(C)C(C)(C)C)nn1-c1cc(Cl)cc(Cl)c1)CO2 [Compound 8] , tested on FSHR (Homo sapiens)?
Data returned: < 10 nM

Data request: Could you share what EC50 was measured for COc1cc2c(cc1-c1cncc(C(=O)N(C)C)c1)-c1c(c(C(=O)N3CCOCC3(C)C)nn1-c1cc(Cl)cc(Cl)c1)CO2 [Compound 101] , tested on FSHR (Homo sapiens)?
Data returned: < 10 nM
